# Tested on: monocytes
# PROCEDURE TEXT: aberrant enzyme activities in febrile children, monocytes (Table 7)
# Format: cell-based, human
# TEST CONTEXT: P102 UTI
READOUT: aberrant enzyme activity, MONOS

[ask] Give a short answer stating reported aberrant enzyme activity, MONOS for C[C@H](NC(=O)[C@@H](N)CCCCN)C(=O)Nc1ccc2c(c1)Oc1cc(NC(=O)[C@H](C)NC(=O)[C@@H](N)CCCCN)ccc1C21OC(=O)c2ccccc21 [KA-M, (Lys-Ala)2 Rho 110] .
[reply] .smallcircle.

[ask] Write down aberrant enzyme activity, MONOS measured for item C[C@H](NC(=O)OCc1ccccc1)C(=O)NCC(=O)Nc1ccc2c(c1)Oc1cc(NC(=O)CNC(=O)[C@H](C)NC(=O)OCc3ccccc3)ccc1C21OC(=O)c2ccccc21 [Z-AG, (Z-Ala--Gly)2 Rho 110]
[reply] .smallcircle.

[ask] Please give the documented aberrant enzyme activity, MONOS of O=C(NCC(=O)N1CCC[C@H]1C(=O)Nc1ccc2c(c1)Oc1cc(NC(=O)[C@@H]3CCCN3C(=O)CNC(=O)OCc3ccccc3)ccc1C21OC(=O)c2ccccc21)OCc1ccccc1
[reply] .smallcircle.
